# Test system: Staphylococcus epidermidis
# TEST DESCRIPTION: Antibacterial activity against Staphylococcus epidermidis ATCC 35984 assessed as inhibition of biofilm production after 6 hrs
# Format: functional, RP62A
# STUDY CONDITIONS: in the assay text read “after 18 hrs” for “after 6 hrs”
QUANTITY MEASURED: Biofilm inhibitory concentration

INSERT INTO measurements (molecule, study_system, quantity_measured, experimental_result) VALUES
  ('CCOC(=O)C1=C(c2ccccc2)N=c2s/c(=C\c3ccc(OCC(=O)O)cc3)c(=O)n2C1c1ccc(OC)cc1 (configuration not stated)', 'Staphylococcus epidermidis', 'Biofilm inhibitory concentration', '50 µM'),
  ('CCOC(=O)C1=C(c2ccccc2)N=c2s/c(=C\c3ccc(-c4cccc(C(=O)O)c4)o3)c(=O)n2C1c1ccc2c(c1)OCO2 (configuration not stated)', 'Staphylococcus epidermidis', 'Biofilm inhibitory concentration', '25 µM'),
  ('CCOC(=O)C1=C(c2ccccc2)N=c2s/c(=C\c3ccc(N(C)C)cc3)c(=O)n2C1c1ccc(OC)cc1 (configuration not stated)', 'Staphylococcus epidermidis', 'Biofilm inhibitory concentration', '>200 µM'),
  ('CCOC(=O)C1=C(c2ccccc2)N=c2s/c(=C\c3cccc([N+](=O)[O-])c3)c(=O)n2C1c1ccc(OC)cc1 (configuration not stated)', 'Staphylococcus epidermidis', 'Biofilm inhibitory concentration', '>200 µM'),
  ('CCOC(=O)C1=C(c2ccccc2)N=c2s/c(=C\c3ccc(-c4cccc(C(=O)O)c4)o3)c(=O)n2C1c1ccccc1 (configuration not stated)', 'Staphylococcus epidermidis', 'Biofilm inhibitory concentration', '>200 µM'),
  ('Cc1ccc(/N=C2/S/C(=C\c3ccc(-c4cccc(C(=O)O)c4)o3)C(=O)N2c2ccc(C)cc2)cc1', 'Staphylococcus epidermidis', 'Biofilm inhibitory concentration', '12.5 µM'),
  ('CCOC(=O)C1=C(c2ccccc2)N=c2s/c(=C\c3ccc(-c4cccc(C(=O)O)c4)o3)c(=O)n2C1c1ccc(OC)cc1 (configuration not stated)', 'Staphylococcus epidermidis', 'Biofilm inhibitory concentration', '25 µM');

Values from ChEMBL document CHEMBL1687867
